measure: Ki (µM)
Could you give me the number in µM? Just the number is fine.

**Query** Kindly state the measured Ki obtained for O=C(c1cccc2ccccc12)c1cn(CCCCCF)c2ccccc12 with UGT1A3 (Homo sapiens, UniProt P35503).
**Result** 4.3

---

subject_of_test: CYP2C8 (Homo sapiens, UniProt P10632)
Construct: tissue Corning Life Sciences; host or cells: pooled human liver microsomes (150 donors)
Sequence (P10632 whole entry): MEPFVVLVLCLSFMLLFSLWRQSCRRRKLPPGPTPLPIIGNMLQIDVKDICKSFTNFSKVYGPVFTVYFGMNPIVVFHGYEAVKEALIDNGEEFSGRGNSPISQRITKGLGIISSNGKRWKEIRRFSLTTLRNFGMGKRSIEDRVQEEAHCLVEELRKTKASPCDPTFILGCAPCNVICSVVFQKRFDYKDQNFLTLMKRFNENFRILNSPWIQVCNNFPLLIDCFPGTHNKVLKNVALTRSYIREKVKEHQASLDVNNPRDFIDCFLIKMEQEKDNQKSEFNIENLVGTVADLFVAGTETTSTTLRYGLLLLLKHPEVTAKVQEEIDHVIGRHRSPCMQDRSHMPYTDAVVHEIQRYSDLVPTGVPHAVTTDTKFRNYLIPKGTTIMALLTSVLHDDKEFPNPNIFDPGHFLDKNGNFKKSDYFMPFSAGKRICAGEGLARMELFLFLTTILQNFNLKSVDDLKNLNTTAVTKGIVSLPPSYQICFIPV
protocol_details: CYP2C8 amodiaquine N-deethylase inhibition and mechanism-based inactivation in human liver microsomes
Assay type: in vitro ADME
test_conditions: IC50 (μM) With Preincubation, Amodiaquine N-deethylase, CYP2C8, 30 min preincubation with NADPH
measure: IC50
Just so you know, I need the unit written after the number.

**Query** May I ask what IC50 has been recorded for O=C(c1cccc2ccccc12)c1cn(CCCCCF)c2ccccc12 ?
**Result** 6.9 µM

---

subject_of_test: CYP2C9 (Homo sapiens, UniProt P11712)
Construct: tissue Corning Life Sciences; host or cells: pooled human liver microsomes (150 donors)
Sequence (P11712 whole entry): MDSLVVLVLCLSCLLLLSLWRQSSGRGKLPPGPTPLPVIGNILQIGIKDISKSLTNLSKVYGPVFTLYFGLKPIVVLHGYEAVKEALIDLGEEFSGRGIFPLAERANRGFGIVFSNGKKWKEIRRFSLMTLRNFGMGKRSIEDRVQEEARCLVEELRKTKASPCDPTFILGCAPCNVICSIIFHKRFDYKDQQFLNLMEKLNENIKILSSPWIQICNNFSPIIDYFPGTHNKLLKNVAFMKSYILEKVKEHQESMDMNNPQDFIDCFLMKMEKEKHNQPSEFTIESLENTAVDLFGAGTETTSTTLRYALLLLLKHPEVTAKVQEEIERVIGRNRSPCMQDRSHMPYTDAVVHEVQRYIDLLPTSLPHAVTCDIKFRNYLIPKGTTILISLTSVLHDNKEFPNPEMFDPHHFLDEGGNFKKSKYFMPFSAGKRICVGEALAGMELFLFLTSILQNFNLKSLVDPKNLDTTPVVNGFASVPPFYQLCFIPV
protocol_details: CYP2C9 diclofenac 4′-hydroxylase inhibition in human liver microsomes
Format: in vitro ADME
test_conditions: IC50 (μM) With Preincubation, Diclofenac 4′-hydroxylase, CYP2C9, 30 min preincubation with NADPH
measure: IC50 (µM)
Could you give me the number in µM? Just the number is fine.

**Query** Kindly state the measured IC50 obtained for O=C(c1cccc2ccccc12)c1cn(CCCCCF)c2ccccc12 with CYP2C9 (Homo sapiens, UniProt P11712).
**Result** 11.9

---

subject_of_test: UGT1A3 (Homo sapiens)
Construct: tissue Corning Life Sciences; host or cells: pooled human liver microsomes (150 donors)
Sequence (P35503 29-534): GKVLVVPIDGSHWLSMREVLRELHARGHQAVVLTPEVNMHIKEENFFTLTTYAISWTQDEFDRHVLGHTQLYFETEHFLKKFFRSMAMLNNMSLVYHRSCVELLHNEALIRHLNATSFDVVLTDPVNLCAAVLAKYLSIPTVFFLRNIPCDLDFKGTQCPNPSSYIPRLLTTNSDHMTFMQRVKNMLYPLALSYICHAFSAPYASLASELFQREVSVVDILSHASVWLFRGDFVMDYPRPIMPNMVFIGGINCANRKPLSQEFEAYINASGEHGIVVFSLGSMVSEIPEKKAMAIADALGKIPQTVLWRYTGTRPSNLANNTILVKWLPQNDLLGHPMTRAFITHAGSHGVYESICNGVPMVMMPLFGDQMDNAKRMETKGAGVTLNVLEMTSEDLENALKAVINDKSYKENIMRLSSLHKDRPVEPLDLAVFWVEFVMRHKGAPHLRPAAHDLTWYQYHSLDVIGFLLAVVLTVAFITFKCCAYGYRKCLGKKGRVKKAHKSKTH
protocol_details: UGT1A3 chenodeoxycholic acid 24-acyl-glucuronidation inhibition in human liver microsomes
Format: in vitro ADME
test_conditions: IC50, UGT1A3-catalyzed chenodeoxycholic acid 24-acyl-glucuronidation, abstract
measure: IC50 (µM)
Could you give me the number in µM? Just the number is fine.

**Query** May I ask what IC50 has been recorded for O=C(c1cccc2ccccc12)c1cn(CCCCCF)c2ccccc12 ?
**Result** 4.3

---

subject_of_test: CYP2C9 (Homo sapiens, UniProt P11712)
Construct: tissue Corning Life Sciences; host or cells: pooled human liver microsomes (150 donors)
protocol_details: CYP2C9 diclofenac 4′-hydroxylase inhibition in human liver microsomes
Type: in vitro ADME
measure: Ki (µM)
Could you give me the number in µM? Just the number is fine.

**Query** May I ask what Ki has been recorded for O=C(c1cccc2ccccc12)c1cn(CCCCCF)c2ccccc12 [AM-2201] ?
**Result** 3.9

---

subject_of_test: UGT2B7 (Homo sapiens)
Construct: tissue Corning Life Sciences; host or cells: pooled human liver microsomes (150 donors)
Sequence (P16662 24-529): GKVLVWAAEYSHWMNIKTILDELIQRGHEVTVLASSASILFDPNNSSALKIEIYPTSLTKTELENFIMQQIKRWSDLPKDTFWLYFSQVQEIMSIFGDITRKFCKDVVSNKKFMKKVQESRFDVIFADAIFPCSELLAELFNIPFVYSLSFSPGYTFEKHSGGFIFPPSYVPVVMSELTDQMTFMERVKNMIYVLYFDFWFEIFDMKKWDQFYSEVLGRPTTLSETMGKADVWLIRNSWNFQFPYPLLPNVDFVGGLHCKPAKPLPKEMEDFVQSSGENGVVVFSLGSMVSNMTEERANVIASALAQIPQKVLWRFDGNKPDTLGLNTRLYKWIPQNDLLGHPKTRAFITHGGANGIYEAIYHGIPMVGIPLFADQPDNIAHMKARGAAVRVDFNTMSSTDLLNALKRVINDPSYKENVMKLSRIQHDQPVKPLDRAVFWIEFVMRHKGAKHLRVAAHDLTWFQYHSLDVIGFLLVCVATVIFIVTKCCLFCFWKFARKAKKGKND
protocol_details: UGT2B7 naloxone 3-β-D-glucuronidation inhibition in human liver microsomes
Assay type: in vitro ADME
test_conditions: IC50, UGT2B7-catalyzed naloxone 3-glucuronidation, abstract
measure: pIC50
// returns pIC50 (minus log10 of molar concentration), number only

**Query** Kindly state the measured pIC50 obtained for O=C(c1cccc2ccccc12)c1cn(CCCCCF)c2ccccc12 [AM-2201] with UGT2B7 (Homo sapiens).
**Result** 5.00

---

subject_of_test: CYP2C8 (Homo sapiens)
Construct: tissue Corning Life Sciences; host or cells: pooled human liver microsomes (150 donors)
protocol_details: CYP2C8 amodiaquine N-deethylase inhibition and mechanism-based inactivation in human liver microsomes
Format: in vitro ADME
test_conditions: IC50 (μM) No Preincubation, Amodiaquine N-deethylase, CYP2C8, human liver microsomes, 2.5 μM amodiaquine
measure: IC50 (µM)
Could you give me the number in µM? Just the number is fine.

**Query** May I ask what IC50 has been recorded for O=C(c1cccc2ccccc12)c1cn(CCCCCF)c2ccccc12 ?
**Result** 53.8

---

subject_of_test: CYP3A4 (Homo sapiens, UniProt P08684)
Sequence (P08684 whole entry): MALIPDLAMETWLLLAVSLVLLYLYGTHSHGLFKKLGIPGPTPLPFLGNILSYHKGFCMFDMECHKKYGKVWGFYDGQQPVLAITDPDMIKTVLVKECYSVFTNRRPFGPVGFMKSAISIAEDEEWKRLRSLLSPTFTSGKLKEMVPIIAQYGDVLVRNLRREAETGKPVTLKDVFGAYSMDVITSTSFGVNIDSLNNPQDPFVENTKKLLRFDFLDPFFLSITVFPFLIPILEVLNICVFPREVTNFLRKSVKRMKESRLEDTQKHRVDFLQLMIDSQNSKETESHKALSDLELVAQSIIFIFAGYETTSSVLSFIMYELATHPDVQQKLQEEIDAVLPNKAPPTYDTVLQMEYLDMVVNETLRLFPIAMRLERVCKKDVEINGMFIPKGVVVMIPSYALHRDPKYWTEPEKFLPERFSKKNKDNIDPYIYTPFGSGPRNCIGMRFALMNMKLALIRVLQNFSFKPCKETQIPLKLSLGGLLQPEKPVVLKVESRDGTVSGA
protocol_details: CYP3A4 midazolam 1′-hydroxylase inhibition in human liver microsomes
Type: in vitro ADME
Design: tissue Corning Life Sciences; host or cells: pooled human liver microsomes (150 donors)
test_conditions: IC50 (μM) With Preincubation, Midazolam 1′-hydroxylase, CYP3A4, 30 min preincubation with NADPH
Method: After a 3-min pre-incubation at 37 °C, the reactions were initiated by addition of NADPH and incubation proceeded for 15 min at 37 °C in a shaking water bath. […] The incubation mixtures were centrifuged (13,000× g, 4 min, 4 °C). All assays were performed in triplicate and mean values were used in calculations. […] The metabolites formed from CYP substrates were quantified simultaneously by a LC-MS/MS method described previously. […]
measure: IC50 (µM)
Could you give me the number in µM? Just the number is fine.

**Query** May I ask what IC50 has been recorded for O=C(c1cccc2ccccc12)c1cn(CCCCCF)c2ccccc12 [AM-2201] ?
**Result** 3.8

---

subject_of_test: UGT1A3 (Homo sapiens)
Construct: tissue Corning Life Sciences; host or cells: pooled human liver microsomes (150 donors)
Sequence (P35503 29-534): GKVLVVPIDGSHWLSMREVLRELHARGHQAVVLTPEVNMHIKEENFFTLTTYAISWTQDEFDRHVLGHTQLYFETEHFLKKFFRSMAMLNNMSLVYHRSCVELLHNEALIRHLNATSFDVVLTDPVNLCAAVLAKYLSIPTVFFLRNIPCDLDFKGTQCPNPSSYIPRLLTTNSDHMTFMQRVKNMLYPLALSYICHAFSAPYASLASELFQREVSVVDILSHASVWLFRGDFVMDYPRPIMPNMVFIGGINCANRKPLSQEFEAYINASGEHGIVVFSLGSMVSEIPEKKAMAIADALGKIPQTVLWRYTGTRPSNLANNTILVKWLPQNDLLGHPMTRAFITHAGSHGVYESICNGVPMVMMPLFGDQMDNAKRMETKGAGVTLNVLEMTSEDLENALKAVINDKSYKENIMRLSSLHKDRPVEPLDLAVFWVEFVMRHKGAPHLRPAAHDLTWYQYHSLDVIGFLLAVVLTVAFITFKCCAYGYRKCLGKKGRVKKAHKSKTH
protocol_details: UGT1A3 chenodeoxycholic acid 24-acyl-glucuronidation inhibition in human liver microsomes
Type: in vitro ADME
test_conditions: IC50, UGT1A3 chenodeoxycholic acid 24-acyl-glucuronidation, 2 μM chenodeoxycholic acid, human liver microsomes
Method: After 3 min of pre-incubation at 37 °C, the reactions were initiated by addition of UDPGA; incubation continued for 60 min at 37 °C in a shaking water bath. […] The reactions were initiated by addition of UDPGA at 37 °C and stopped after 60 min by placing the incubation tubes on ice and adding 100 μL of ice-cold methanol containing propofol glucuronide (internal standard for UGT1A3) or meloxicam (internal standard for UGT2B7). […] Aliquots (5 μL) of the diluted supernatants were analyzed by LC-MS/MS. […]
measure: pIC50
// returns pIC50 (minus log10 of molar concentration), number only

**Query** May I ask what pIC50 has been recorded for O=C(c1cccc2ccccc12)c1cn(CCCCCF)c2ccccc12 ?
**Result** 5.19

---

measure: pKi
// returns pKi (minus log10 of molar concentration), number only

**Query** Kindly state the measured pKi obtained for O=C(c1cccc2ccccc12)c1cn(CCCCCF)c2ccccc12 with CYP3A4 (Homo sapiens, UniProt P08684).
**Result** 5.40

---

subject_of_test: CYP2C9 (Homo sapiens, UniProt P11712)
Construct: tissue Corning Life Sciences; host or cells: pooled human liver microsomes (150 donors)
protocol_details: CYP2C9 diclofenac 4′-hydroxylase inhibition in human liver microsomes
Format: in vitro ADME
test_conditions: IC50, CYP2C9-catalyzed diclofenac 4′-hydroxylation, abstract
measure: pIC50
// returns pIC50 (minus log10 of molar concentration), number only

**Query** May I ask what pIC50 has been recorded for O=C(c1cccc2ccccc12)c1cn(CCCCCF)c2ccccc12 ?
**Result** 5.41
